System: PC15
Test: qHTS profiling for inhibitors of Plasmodium falciparum proliferation (AID 504749); also: nearly all actives have a fitted effect of over 60% in size
Conditions: P. falciparum in erythrocytes, SYBR Green DNA, 72 h; series mostly up to 28.7 µM
Results filed as inconclusive are left out. Active and inactive are the calls of the source. Calls follow the shape of the dose curve; as a rule, active = well fitted inhibition curve with a large enough effect; inconclusive = small, poorly fitted or top-dose-only effect; inactive = flat fitted curve, though single readings scatter.
# output must be one of yes = active, no = inactive

// query Per the assay record, what outcome was assigned to CC(N)Cc1ccc(O)cc1 (stereo not given) ?
// result no

// query Per the assay record, what outcome was assigned to O=C1CCCCC1CN1CCCCC1 (stereo not given) ?
// result no

// query Per the assay record, what outcome was assigned to `CCOP(=O)(OCC)O/C(=C/Cl)c1ccc(Cl)cc1Cl` ?
// result no

// query Per the assay record, what outcome was assigned to `[O]=[Cd]` ?
// result no

// query Per the assay record, what outcome was assigned to `CNC(=O)OCC[N+](C)(C)C` ?
// result no

// query Per the assay record, what outcome was assigned to `O=Cc1ccco1` ?
// result no

// query Per the assay record, what outcome was assigned to C=CCC1(C(C)CCC)C(=O)N=C(S)NC1=O (stereo not given) ?
// result no

// query Per the assay record, what outcome was assigned to CC(C)(O)C1C2OC(=O)C1C1(O)CC3OC34C(=O)OC2C14C (stereo not given) ?
// result no

// query Per the assay record, what outcome was assigned to CC12NC(Cc3ccccc31)c1ccccc12 (stereo not given) ?
// result no

// query Per the assay record, what outcome was assigned to `O=[N+]([O-])c1cc(I)c(O)c(I)c1` ?
// result no

// query Per the assay record, what outcome was assigned to COC([CH2][Hg])CNC(=O)c1ccccc1OCC(=O)O (stereo not given) ?
// result no

// query Per the assay record, what outcome was assigned to `N#CC(C#N)=Cc1cc(O)c(O)c(O)c1` ?
// result yes

// query Per the assay record, what outcome was assigned to `c1csc(C2(N3CCCCC3)CCCCC2)c1` ?
// result no

// query Per the assay record, what outcome was assigned to `O=S(=O)(O)c1cc(O)ccc1O` ?
// result no

// query Per the assay record, what outcome was assigned to `O=[N+]([O-])c1ccccc1` ?
// result no
